Data origin, for the record: patent US9206432B2

- System: lacZ under control of the tetA promoter (PtetA) in E. coli KM3
- Assay type: cell-based
- condition context: Table 4; ethametsulfuron 20 ppm; 48 hrs at 30° C.
endpoint name: relative β-galactosidase activity, inducer Es

Below, 5 molecules whose answers are already recorded.
molecule | result
L1-7: SU-responsive TetR(B) variant, library L1 hit, SEQ ID NO: 4 (protein, Sulfonylurea responsive repressor L1-07) MGSRLDKSKVINSALELLNEVGIEGLTTRKLAQKLGVEQPTLYWHVKNKRALLDALAIEMLDRHNTHFCPLEGESWQDFLRNNAKSWRCALLSHRDGAKVVLGTAITEKQYETHENPLAFLCQQGFSLENALYAIAAVRRFTLGCVLVDQERQVAKEERETPTTDSMPPLLRQASELQDHQGAEPAFLFGLELIICGLEKQLKCERGS | 0.1
L1-9: SU-responsive TetR(B) variant, library L1 hit (protein, Sulfonylurea responsive repressor L1-09) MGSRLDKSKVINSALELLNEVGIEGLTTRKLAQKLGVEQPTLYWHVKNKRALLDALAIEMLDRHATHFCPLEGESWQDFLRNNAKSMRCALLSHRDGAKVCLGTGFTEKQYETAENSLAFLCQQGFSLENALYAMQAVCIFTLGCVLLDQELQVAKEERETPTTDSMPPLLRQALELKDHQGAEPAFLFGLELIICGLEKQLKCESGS | 11.8
L1-22: SU-responsive TetR(B) variant, library L1 hit, SEQ ID NO: 7 (protein, Sulfornylurea responsive repressor L1-22) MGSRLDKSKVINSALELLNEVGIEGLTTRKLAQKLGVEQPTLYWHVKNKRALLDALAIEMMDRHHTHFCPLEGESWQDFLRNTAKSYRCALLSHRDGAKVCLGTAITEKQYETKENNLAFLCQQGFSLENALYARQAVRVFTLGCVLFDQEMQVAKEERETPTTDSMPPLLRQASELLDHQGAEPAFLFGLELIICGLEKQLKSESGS | 0.3
L1-20: SU-responsive TetR(B) variant, library L1 hit, SEQ ID NO: 6 (protein, Sulfonylurea responsive repressor L1-20) MGSRLDKSKVINSALELLNEVGIEGLTTRKLAQKLGVEQPTLYWHVKNKRALLDALAIEMMDRHQTHFCPLEGESWQDFLRNNAKSMRCALLSHRDGAKVFLGTAWTEKQYETVENLLAFLCQQGFSLENALYALNAVATFTLGCVLWDQEKQVAKEERETPTTDSMPPLLRQAHELGDHQGAEPAFLFGLELIICGLEKQLKSESGS | 15.0
L1-44: SU-responsive TetR(B) variant, library L1 hit, SEQ ID NO: 13 (protein, Sulfonylurea responsive repressor L1-44) MGSRLDKSKVINSALELLNEVGIEGLTTRKLAQKLGVEQPTLYWHVKNKRALLDALAIEMLDRHATHFCPLEGESWQDFLRNNAKSYRCALLSHRDGAKVYLGTAVTEKQYETAENQLAFLCQQGFSLENALYAVKAVAGFTLGCVLWDQESQVAKEERETPTTASMPPLLRQAVELADHQGAEPAFLFGLELIICGLEKQLKCESGS | 2.4

Record summary for L1-31: SU-responsive TetR(B) variant, library L1 hit (protein, Sulfonylurea responsive repressor L1-31) MGSRLDKSKVINSALELLNEVGIEGLTTRKLAQKLGVEQPTLYWHVKNKRALLDALAIEMLDRHATHFCPLEGESWQDFLRNNAKSMRCALLSHRDGAKVMLGTRATEKQYETVENRLAFLCQQGFSLENALYAVRAVHWFTLGCVLIDQEMQVAKEERETPTTDSMPPLLRQAYELYDHQGAEPAFLFGLELIICGLEKQLKCESGS : reported relative β-galactosidase activity, inducer Es = 13.7

Record summary for L1-2: SU-responsive TetR(B) ligand binding domain variant, library L1 hit, SEQ ID NO: 3 (protein, Sulfonylurea responsive repressor L1-02) MGSRLDKSKVINSALELLNEVGIEGLTTRKLAQKLGVEQPTLYWHVKNKRALLDALAIEMLDRHATHFCPLEGESWQDFLRNNAKSFRCALLSHRDGAKVCLGTAVTEKQYETMENILAFLCQQGFSLENALYARRAVIAFTLGCVLWDQEYQVAKEERETPTTDSMPPLLRQARELIDHQGAEPAFLFGLELIICGLEKQLKCESGS : reported relative β-galactosidase activity, inducer Es = 5.8
